IC50: recorded values
Assay target: HLA-DRB1*1301 (Homo sapiens, UniProt P01903+P01911, A100E/A169T/K41T/L162R/M171V/P40S/Q125H/Q178H/Q39Y/Q99D/R42S/S66N/T262R/W38E/Y61H)
Sequence (P01903 26-254 limits assumed): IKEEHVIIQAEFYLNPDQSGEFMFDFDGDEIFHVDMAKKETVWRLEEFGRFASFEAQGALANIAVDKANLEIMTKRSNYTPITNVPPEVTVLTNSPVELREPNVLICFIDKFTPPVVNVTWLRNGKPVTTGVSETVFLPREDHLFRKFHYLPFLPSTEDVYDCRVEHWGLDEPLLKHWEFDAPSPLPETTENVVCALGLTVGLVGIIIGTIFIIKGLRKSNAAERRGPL
Sequence (P01911 30-266 W38E/Q39Y/P40S/K41T/R42S/Y61H/S66N/Q99D/A100E/Q125H/L162R/A169T/M171V/Q178H/T262R limits assumed): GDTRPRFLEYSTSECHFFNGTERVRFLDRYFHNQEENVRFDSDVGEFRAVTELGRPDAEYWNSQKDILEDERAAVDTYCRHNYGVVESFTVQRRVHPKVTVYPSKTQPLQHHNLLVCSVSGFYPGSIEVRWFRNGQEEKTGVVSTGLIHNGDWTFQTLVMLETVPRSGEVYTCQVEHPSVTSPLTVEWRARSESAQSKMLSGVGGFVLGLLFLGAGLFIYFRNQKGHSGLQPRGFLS
Test protocol: Class II HLA binding assay
Measurement context: Figure 6; shortened peptides of Table 3; category by IC50; read-out: HLA binding affinity category, DRB1*1301
Ends that are not written are not given here.

Substance	IC50
MERVEWLRKKQDVHNF [DES-LEU28_TPT (18-33)]	100 to 1000 nM
MERVEWLRKKLQDVHNF-OH [API_TPT (18-34) C-term]	1000 to 10000 nM
MERVEWLRK(Ac)KLQDVHNF [LYS-AC26_TPT (18-34)]	> 100000 nM
